Form field: Full length oligonucleotide, Distal colon (one value per entry).
# Run description: Oligonucleotide concentration in tissues by LC-MS/MS after subcutaneous administration in beagle dogs (Example 8)
# Assay type: in vivo
# Condition notes: 30 mg/kg subcutaneous, 48 hours after the last dose, distal colon
# Experimental: There were 4 animals per group. Oligonucleotide concentrations of both ION 830025 and ION 798781 were detected in various tissues by LC-MS/MS analysis. The results are presented below, expressed as μg/g tissue. The data was collected 48 hours after the last dose.

Consider the following illustrative entries.
Substance	Experimental result
830025 (antisense TTTGTAAATCGAAAGC; 3-10-3 cEt gapmer, further chemistry not given here) [compound 830025]	49 µg/g
798781 (CGTAAGATTCACAGCA; 3-10-3 cEt gapmer, further chemistry not given here) [compound 798781]	68 µg/g
830037 (antisense CTATTGGCTGATCTGG; 3-10-3 cEt gapmer, further chemistry not given here) [compound 830037]	46 µg/g
830121 (AGAATCAAGCCCTGGC; 3-10-3 cEt gapmer, further chemistry not given here) [compound 830121]	20 µg/g
829994 (GGAGGCAGGGCCGCGA; 3-10-3 cEt gapmer, further chemistry not given here) [compound 829994]	7 µg/g

Q) Please look at this substance and report its Full length oligonucleotide, Distal colon: 790615 (CCAATGAGAATGCTTC; 3-10-3 cEt gapmer, further chemistry not given here) [compound 790615]
A) 17 µg/g

###

# Tested on: human SMAD7 mRNA
# Run description: Dose-dependent inhibition of human SMAD7 mRNA expression in Hep3B cells (Example 3, Study 1 and 2)
# Assay type: cell-based
# Condition notes: 20000.0 nM, electroporation, approximately 16 hours, Study 2
# Description: The antisense oligonucleotides were tested in a series of experiments that had similar culture conditions as described below. Cells were plated at a density of 20,000 cells per well and transfected using electroporation with 0.31 μM, 1.25 μM, 5.00 μM, or 20.00 μM concentrations of antisense oligonucleotide, as specified in the Tables below. […] After a treatment period of approximately 16 hours, RNA was isolated from the cells and SMAD7 mRNA levels were measured by quantitative real-time PCR. […]
Strand notation (5' to 3'): a small letter for the sugar, then the base; units joined by * are phosphorothioate-linked, units joined directly phosphodiester-linked; [ ] holds rarer units or linkages, { } end groups; capitals alone tell only the bases. k = constrained ethyl (cEt); [5mC] = 5-methylcytosine; d = 2'-deoxy (DNA)
Please enter MET where % inhibition of SMAD7 mRNA expression is greater than or equal to 80%, and NOT MET where it is lower.

Substance	Classification
799467 (antisense kG*k[5mC]*kA*dG*dA*d[5mC]*dA*dG*dA*dA*dG*d[5mC]*dT*k[5mC]*kT*kA) [compound 799467]	NOT MET
798987 (antisense kA*kA*kT*dG*dA*dT*dG*dA*d[5mC]*d[5mC]*dG*d[5mC]*d[5mC]*k[5mC]*k[5mC]*k[5mC]) [compound 798987]	NOT MET
799781 (kG*kT*k[5mC]*dA*dA*dT*dA*d[5mC]*dA*dT*dA*dT*dT*kT*kG*k[5mC]; antisense) [compound 799781]	MET
799686 (antisense kG*kA*kG*dA*dT*dT*dT*dT*dA*dA*dA*dT*dG*k[5mC]*kT*kG) [compound 799686]	NOT MET
790614 (kG*kA*kG*dA*dA*dT*dG*d[5mC]*dT*dT*d[5mC]*dT*d[5mC]*kT*kT*kG; antisense) [compound 790614]	NOT MET
799689 (antisense kT*kG*k[5mC]*dT*dA*d[5mC]*dA*dG*dT*dG*dT*d[5mC]*dA*k[5mC]*k[5mC]*kA) [compound 799689]	NOT MET

Q) hey, is % inhibition of SMAD7 mRNA expression for this one >= 80%? 798954 (antisense kA*kT*kA*dA*dG*d[5mC]*dT*dA*dT*dT*dT*d[5mC]*dT*k[5mC]*kA*kA) [compound 798954]
A) NOT MET

Q) Textbook exercise: given the entry 799168 (antisense kG*k[5mC]*kT*dA*dA*dG*dA*dA*d[5mC]*dA*dG*dT*dG*kT*k[5mC]*kG) [compound 799168] , state whether its % inhibition of SMAD7 mRNA expression is greater than or equal to 80%.
A) NOT MET

###

# Tested on: human SMAD7 mRNA
# Run description: Antisense inhibition of human SMAD7 mRNA expression in Hep3B cells by 5-10-5 MOE gapmers, single concentration, electroporation, RT-PCR (Example 1, Study 1 and 2)
# Assay type: cell-based
# Condition notes: electroporation, 15,000 nM antisense oligonucleotide (Study 2), 5-10-5 MOE gapmers targeting SEQ ID NO: 1 and 2
Strand notation (5' to 3'): a small letter for the sugar, then the base; units joined by * are phosphorothioate-linked, units joined directly phosphodiester-linked; [ ] holds rarer units or linkages, { } end groups; capitals alone tell only the bases. e = 2'-O-(2-methoxyethyl) (MOE); [5mC] = 5-methylcytosine; d = 2'-deoxy (DNA)
Value kind: % inhibition of SMAD7 mRNA expression (%)
Entry rule: numbers only, all in %.

Use the examples below as a reference point.
Substance	Value kind	Experimental result
771954 (antisense e[5mC]*eT*eA*eG*eA*dA*dT*dG*dA*dA*dG*dA*d[5mC]*dA*d[5mC]*e[5mC]*e[5mC]*eG*e[5mC]*e[5mC]) [compound 771954]	% inhibition of SMAD7 mRNA expression	0
771857 (antisense e[5mC]*eG*eT*e[5mC]*eT*dT*dA*dT*dT*dG*dT*dT*dT*dT*dT*eG*eT*eT*e[5mC]*e[5mC]) [compound 771857]	% inhibition of SMAD7 mRNA expression	29
771920 (antisense eT*eT*eA*eT*eT*dT*dA*dA*dT*dT*dA*d[5mC]*d[5mC]*d[5mC]*dT*eG*e[5mC]*eT*e[5mC]*eA) [compound 771920]	% inhibition of SMAD7 mRNA expression	13
771355 (antisense e[5mC]*eA*eG*eT*eT*d[5mC]*dG*dG*d[5mC]*d[5mC]*dT*dT*d[5mC]*d[5mC]*dA*eT*e[5mC]*e[5mC]*eA*eA) [compound 771355]	% inhibition of SMAD7 mRNA expression	0

Q) Please report % inhibition of SMAD7 mRNA expression for the following substance: 771586 (antisense e[5mC]*e[5mC]*eT*eT*eG*dA*dT*dG*dA*dG*dG*dG*dA*dG*dA*eG*eG*eA*eG*eG) [compound 771586]
A) 48

###

# Tested on: human SMAD7 mRNA
# Run description: Antisense inhibition of human SMAD7 mRNA expression in Hep3B cells by 3-10-3 cEt gapmers, 10,000 nM, electroporation (Example 2)
# Type: cell-based
# Condition notes: Hep3B cells, electroporation with 10,000 nM antisense oligonucleotide, approximately 24 hours, primer probe set RTS5062, relative to untreated control cells
# Method: Antisense oligonucleotides were designed to target human SMAD7 mRNA and were tested for their effects on SMAD7 mRNA expression in vitro. […] After a treatment period of approximately 24 hours, RNA was isolated from the cells and SMAD7 mRNA levels were measured by quantitative real-time PCR. […] SMAD7 mRNA levels were adjusted according to total RNA content, as measured by RIBOGREEN®. […]
Strand notation (5' to 3'): a small letter for the sugar, then the base; units joined by * are phosphorothioate-linked, units joined directly phosphodiester-linked; [ ] holds rarer units or linkages, { } end groups; capitals alone tell only the bases. k = constrained ethyl (cEt); [5mC] = 5-methylcytosine; d = 2'-deoxy (DNA)
Listing: % Inhibition of selected substances
// return numeric value only (unit: %, not printed)

Observe how each entry below is paired with its result.
Substance	Value kind	Experimental result
772702 (k[5mC]*kG*kT*d[5mC]*dT*dT*dT*dA*dT*dA*dT*dT*dT*kA*k[5mC]*kA; antisense) [compound 772702]	% Inhibition	23
799001 (antisense k[5mC]*kA*kG*d[5mC]*d[5mC]*dG*d[5mC]*dA*d[5mC]*dA*d[5mC]*dT*d[5mC]*kA*k[5mC]*kA) [compound 799001]	% Inhibition	37
798942 (antisense k[5mC]*kG*kA*dG*dA*dA*dG*dA*dA*dG*dA*dA*dA*kA*k[5mC]*k[5mC]) [compound 798942]	% Inhibition	35
799062 (antisense k[5mC]*kT*kG*dG*dT*dT*d[5mC]*dG*dG*d[5mC]*d[5mC]*dA*d[5mC]*kT*kA*kG) [compound 799062]	% Inhibition	45
799119 (antisense kA*kG*k[5mC]*dA*dG*dA*dG*d[5mC]*dT*dT*dA*dA*d[5mC]*kA*k[5mC]*kA) [compound 799119]	% Inhibition	50

Q) Provide one value: measured % Inhibition of 798994 (antisense kA*k[5mC]*kA*d[5mC]*dA*d[5mC]*dA*d[5mC]*dT*d[5mC]*d[5mC]*dT*dG*kA*k[5mC]*kA) [compound 798994]
A) 0
